target: BACE1 (Homo sapiens (Human)); test: In vitro BACE1 cell-based assay (Aβ40 in conditioned medium of cells stably expressing APP, HTRF); details: Aβ40, 24 h incubation; read-out: BACE1 Cell IC50
Sequence (P56817 46-501, species assumed): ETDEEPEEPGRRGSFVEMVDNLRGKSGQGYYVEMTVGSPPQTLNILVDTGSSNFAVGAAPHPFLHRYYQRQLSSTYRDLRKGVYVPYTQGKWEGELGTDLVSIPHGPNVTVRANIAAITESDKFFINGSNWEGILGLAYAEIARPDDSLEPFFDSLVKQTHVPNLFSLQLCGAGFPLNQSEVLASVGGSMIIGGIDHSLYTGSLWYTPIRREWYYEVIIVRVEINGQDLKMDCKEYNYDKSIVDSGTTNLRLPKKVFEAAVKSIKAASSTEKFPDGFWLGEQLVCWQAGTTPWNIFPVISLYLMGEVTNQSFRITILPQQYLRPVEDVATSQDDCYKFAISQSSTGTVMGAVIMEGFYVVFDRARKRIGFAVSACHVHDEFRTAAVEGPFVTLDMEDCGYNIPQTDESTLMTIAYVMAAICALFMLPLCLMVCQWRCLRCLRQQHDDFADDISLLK
pIC50: −log10 of the molar value.
PARAMETER MEASURED: pIC50

SMILES STR	pIC50
Cc1cn(C[C@]23C[C@H]2[C@@](CF)(c2cc(C#Cc4ccc(C#N)cn4)ccc2F)N=C(N)S3)nn1	6.85

(A) N#Cc1cnc(C#Cc2ccc(F)c([C@@]3(CF)N=C(N)S[C@@]4(/C=C/C(=O)N5CCOCC5)C[C@H]43)c2)c(F)c1
(B) N#Cc1ccc(C#Cc2ccc(F)c([C@@]3(CF)N=C(N)S[C@@]4(/C=C/C(=O)N5CCOCC5)C[C@H]43)c2)nc1
Just curious, which one has the larger pIC50 reading, A or B ? Respond with the label that goes with your answer. B
